Listed molecules paired with reported INHIBITION
system: Plasmodium berghei; test: Screen against P. berghei liver stage (PbLuc), transformed with Luciferase, at 2uM; format: functional, HepG2; conditions: tested at 2 uM
The campaign covered roughly 68,000 compounds. About 2,700 (4%) showed an effect of 50% or more. The entries come from a sample that favours strong results as a whole.

| Molecule | INHIBITION |
| --- | --- |
| O=S(=O)(C1CC1)N1CCCn2nnc(Cn3cccc3)c2C1 | 23.81% |
| CCC(C)n1cnc(S(=O)(=O)N(C)C)c1 (configuration not stated) | -15.03% |
| CC(NC(=O)c1cc(=O)n(C)c(=O)n1C)c1ccccc1-n1cccn1 (configuration not stated) | 50.97% |
| CC(NC1CCSCC1)c1ccccc1-n1cccn1 (configuration not stated) | 27.52% |
| Cn1ncc2c(NCCOCc3ccccc3)nc(C3CCCC3)nc21 | -19.29% |
| CC(NC1CCCC1)c1ccccc1-n1cccn1 (configuration not stated) | 21.28% |
| Cc1ccccc1C(C)NC(=O)c1ccc(=O)n(C)c1 (configuration not stated) | 64.9% |
| CCC(C)n1cnc(S(=O)(=O)N(C)c2cccnc2N(C)C)c1 (configuration not stated) | 11.9% |
| Cc1ccc2c(c1)CN(C(=O)C1CCCCC1)C(CN(C)C)CO2 (configuration not stated) | 38.1% |
| NC(=O)c1cc(-n2cc(-c3cccc(C(=O)O)c3)cn2)cs1 | 29.13% |
| Cn1nc(Br)c2c(NCCNc3ncccn3)ncnc21 | 33.11% |
| COCc1c(C(=O)N2CCCC(C(=O)c3ccccc3)C2)noc1C (configuration not stated) | 10.1% |

Measured values drawn from ChEMBL document CHEMBL4513216 for this set.
